Hey, just so you know, these numbers are from PubChem BioAssay.

biological target: L-lactate dehydrogenase (Plasmodium falciparum (isolate CDC / Honduras)); experiment: PfLDH activity inhibition – cell lysate, 3D7 strain, counter-screen for P. falciparum growth inhibition project (AID 2304);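 note: 0% = vehicle and 100% = reference inhibitor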; conditions: P. falciparum 3D7 crude extract, LDH APAD/NBT absorbance; at 2 µM; stronger effect = higher value
Calls of active or inactive are those of the source. The rule behind the calls is not given here.
measurement type: inhibition

>  <molecule>
COc1ccc2nc(N)nc(C)c2c1

>  <study target>
L-lactate dehydrogenase (Plasmodium falciparum (isolate CDC / Honduras))

>  <inhibition>
5% (inactive)

$$$$

Return reported inhibition; argument: Cc1cccc2[nH]c(-c3ccc(-c4ccc(NC(=O)CN5CCN(C)CC5)cc4)s3)nc12
-9% (inactive)

Return reported inhibition; argument: CCOc1ccc2nc(C)cc(NN=Cc3ccncc3)c2c1
0% (inactive)

Return reported inhibition; argument: CCCc1ccc(Cc2cnc3nc(N)nc(N)c3c2C)cc1
4% (inactive)

Return reported inhibition; argument: CCCC(C)NC(=O)[C@H](Cc1ccccc1)NC(=O)c1ccc(O)c(-c2ccc(OC)cc2)c1 (stereo not given in full)
2% (inactive)

Return reported inhibition; argument: N#Cc1cc(C(=O)c2cc(Cl)ccc2O)cn(-c2cccc(C(F)(F)F)c2)c1=O
-2% (inactive)

Return reported inhibition; argument: COCCNCc1cccc(-c2ccc3c(Nc4ccc(Oc5cccnc5)cc4)ccnc3c2)c1
-5% (inactive)

Return reported inhibition; argument: Cc1[nH]c(/C=C2\C(=O)Nc3ccc(S(=O)(=O)Cc4c(Cl)cccc4Cl)cc32)c(C)c1C(=O)N1CCC[C@@H]1CN1CCCC1
-1% (inactive)

Return reported inhibition; argument: NS(=O)(=O)c1cccc(Nc2nc(N[C@@H]3CCNC3)nc3cc[nH]c(=O)c23)c1
0% (inactive)

Return reported inhibition; argument: CSc1ccc(NC(=O)Nc2cc(C)nc3ccccc23)cc1Br
-6% (inactive)

Return reported inhibition; argument: Cc1cccc(C)c1NC1=NC(=S)N(c2cccc(Cl)c2)C12CCC(C(C)(C)C)CC2 (stereo not given)
-14% (inactive)

Return reported inhibition; argument: CC(C)OCCCNC(=O)c1nc(-c2cccc(C(F)(F)F)c2)sc1C(C)C
-8% (inactive)

Return reported inhibition; argument: Cc1cc(NN=Cc2ccccc2[N+](=O)[O-])c2cccc(C)c2n1
1% (inactive)

Return reported inhibition; argument: CC(c1cccc(Nc2nccc(-c3c(-c4cccc(NC(=O)c5c(F)cccc5F)c4)nn4ccccc34)n2)c1)S(C)(=O)=O (stereo not given)
-6% (inactive)

Return reported inhibition; argument: Cc1ccc(S(=O)(=O)n2nccc2-c2c(-c3ccc(Cl)cc3)noc2C)cc1
-2% (inactive)

Return reported inhibition; argument: O=C(Nc1ccc(N2CCNCC2)cc1)c1ccn2ncc(-c3cccc(Cl)c3)c2n1
-2% (inactive)

Return reported inhibition; argument: CCCCC#Cc1cnc2nc(N)[nH]c(=O)c2n1
0% (inactive)

Return reported inhibition; argument: Nc1ncc(-c2ccc(F)c(Cl)c2)c(N)n1
5% (inactive)

Return reported inhibition; argument: COc1ccccc1NC(=O)Nc1cccc(-c2ccc(-c3nc4c(C)cccc4[nH]3)s2)c1
3% (inactive)

Return reported inhibition; argument: CCCCSc1ccc(CNCCCCCCNCc2ccc(SCCCC)c3ccccc23)c2ccccc12
0% (inactive)

###

assay: ovarian cancer cell viability with rucaparib, profiling panel, oncology-focused library, rucaparib conditional (AID 1508598); conditions: patient-derived ovarian cancer cells, CellTiter-Glo viability, 144 h; at 0.00488 µM; OCI-C5x cells; without rucaparib
Active and inactive are the calls of the source.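 The calls were made as follows: active = normalized viability below 100% at a tested concentration; inactive = the rest.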
Pick from 1 = active, 0 = inactive when you respond.

Solved entries (count: 8):
>  <molecule>
NC(=O)Nc1sc(-c2ccc(F)cc2)cc1C(N)=O

>  <class name>
0

$$$$
>  <molecule>
O=C(O)Cc1cccc(OCCCN(Cc2cccc(C(F)(F)F)c2Cl)CC(c2ccccc2)c2ccccc2)c1

>  <class name>
0

$$$$
>  <molecule>
O=c1cc(N2CCOCC2)oc2c(-c3ccccc3)cccc12

>  <class name>
0

$$$$
>  <molecule>
Cc1ccc(S(=O)(=O)/C=C/C#N)cc1

>  <class name>
0

$$$$
>  <molecule>
CN(C)CCCn1cc(C2=C(c3c[nH]c4ccccc34)C(=O)NC2=O)c2ccccc21

>  <class name>
0

$$$$
>  <molecule>
CS(=O)c1ccc(-c2nc(-c3ccc(F)cc3)c(-c3ccncc3)[nH]2)cc1 (stereo not given)

>  <class name>
0

$$$$
>  <molecule>
O=c1cc(-c2cccc3c2Sc2ccccc2S3)oc(N2CCOCC2)c1

>  <class name>
0

$$$$
>  <molecule>
O=C1CN2Cc3c(ccc(Cl)c3Cl)N=C2N1

>  <class name>
0

$$$$

Could you kindly confirm the outcome this assay logged for CC(C)c1onc(-c2c(Cl)cccc2Cl)c1COc1ccc(/C=C/c2cccc(C(=O)O)c2)c(Cl)c1 ?
1

Could you kindly confirm the outcome this assay logged for O=C(c1ccc(OCCN2CCCCC2)cc1)c1c(-c2ccc(O)cc2)sc2cc(O)ccc12 ?
0

###

test: HepG2 cytotoxicity, primary screen, cytotoxicity control for P. falciparum antimalarial project, cell-based, ATP luminescence (AID 2303); conditions: HepG2 viability, 24-48 h, at 10 µM, stronger effect = higher value;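 note: 0% = DMSO wells and 100% = digitonin-killed cells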
Attribute: inhibition
I only need the number, in %, no unit after it.

Before answering, review these 6 worked examples.
>  <compound>
CC(=O)Nc1ccc(OCCCCN(Cc2ccccc2OC(F)(F)F)c2ccc(C(F)(F)F)c(C#N)c2)c(Cl)c1

>  <inhibition, %>
11

$$$$
>  <compound>
O=C(Nc1nc(-c2ccccn2)cs1)c1ccc(S(=O)(=O)N2CCc3ccccc32)cc1

>  <inhibition, %>
47

$$$$
>  <compound>
O=S(=O)(Nc1cccc(CCN2CCC(N3CCCCC3)CC2)c1)c1cccc2cccnc12

>  <inhibition, %>
0

$$$$
>  <compound>
CCOc1ccc2nc(NC(=O)c3csnn3)sc2c1

>  <inhibition, %>
6

$$$$
>  <compound>
CCn1c(-c2nonc2N)nc2c(-c3cccc(NC(=O)Nc4ccc(Cl)cc4)c3)ncc(OCCCN)c21

>  <inhibition, %>
26

$$$$
>  <compound>
Cc1ccc2nc(C)cc(NN=Cc3cccc([N+](=O)[O-])c3)c2c1

>  <inhibition, %>
0

$$$$

Return reported inhibition; argument: Clc1ccc(-c2cnc3ccc(NCCc4cccnc4)nn23)cc1
34

Return reported inhibition; argument: C=CCn1c(SCC(=O)Nc2cc(C)ccc2OC)nc2sc(C)cc2c1=O
6

Return reported inhibition; argument: CCOc1ccc2ccccc2c1C(=O)Nc1cc(C)nn1-c1nc(C)cc(=O)[nH]1
28

Return reported inhibition; argument: CC1CCCN(C(=O)C(C)Nc2cc(Cl)ccc2N2CCOCC2)C1 (stereo not given)
-1

###

test system: R275C/beta1; assay: modulators of BK channel variants, profiling panel, selectivity assay, cell-based, U2OS BacMam, thallium flux, beta subunits (AID 1259406); details: at 30 µM;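 note: initial slope of Thallos dye fluorescence rise after thallium is added; log ratio against the mean of 0.3% DMSO vehicle wells on the same plate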
Activity calls are given as the source filed them.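 How the source made its calls: active means thallium flux through the channel raised or lowered by more than 3 SD from vehicle-only wells, actives on both sides; inactive means the rest.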
Pick from active, inactive when you respond.

Solved entries (count: 6):
>  <compound>
Cn1c(Sc2cnc(=S)[nH]c2-c2ccc(Cl)cc2)nnc1C(F)(F)F

>  <class name>
inactive

$$$$
>  <compound>
CC1CC2C3CCC4=CC(=O)C=CC4(C)[C@@]3(Cl)C(O)CC2(C)C1(O)C(=O)CO (stereo partly specified)

>  <class name>
active

$$$$
>  <compound>
Cc1[nH]n(-c2c(Cl)cc(C(F)(F)F)cc2Cl)c(=O)c1N=Nc1ccccc1

>  <class name>
inactive

$$$$
>  <compound>
CCOC(=O)c1ccc(OCC#Cc2ccc(C(F)(F)F)cn2)cc1

>  <class name>
inactive

$$$$
>  <compound>
CCN(CC)C(=O)[C@]1(c2ccccc2)C[C@@H]1CN

>  <class name>
inactive

$$$$
>  <compound>
C=C1/C(=C\C=C2/CCC[C@]3(C)[C@@H]([C@H](C)/C=C/[C@@H](O)C4CC4)CC[C@@H]23)C[C@@H](O)C[C@@H]1O

>  <class name>
active

$$$$

Could you kindly confirm the outcome this assay logged for Cc1cc2c(cc1C)CSC(c1ccco1)SC2 ?
inactive

Could you kindly confirm the outcome this assay logged for Cc1nc(-c2n[nH]c(=S)n2C)cs1 ?
inactive

Could you kindly confirm the outcome this assay logged for CC(=O)OCC(=O)C12OC3(CCCC3)OC1CC1C3CCC4=CC(=O)C=CC4(C)C3(F)C(O)CC12C (stereo unspecified) ?
inactive

Could you kindly confirm the outcome this assay logged for CCc1ccc(C(=O)Nc2cccc(S(N)(=O)=O)c2)cc1 ?
inactive

Could you kindly confirm the outcome this assay logged for CCOC(=O)c1cc(NC(=O)CC(C)(C)CC(=O)O)ccc1N1CCCCC1 ?
inactive

Could you kindly confirm the outcome this assay logged for Cc1onc(-c2ccccc2)c1N1C(=O)CCN(C(C)C)C1=O ?
inactive

Could you kindly confirm the outcome this assay logged for O=c1c(O[C@@H]2O[C@H](CO)[C@@H](O)[C@H](O)[C@H]2O)c(-c2ccc(O)c(O)c2)oc2cc(O)cc(O)c12 ?
inactive
